Measured pIC50 of individual entries
- study system: ETA (Oryctolagus cuniculus)
- Construct: The cells used were rabbit renal artery vascular smooth muscle cells; endogenous in cells
- Sequence (A5A8K3 21-427): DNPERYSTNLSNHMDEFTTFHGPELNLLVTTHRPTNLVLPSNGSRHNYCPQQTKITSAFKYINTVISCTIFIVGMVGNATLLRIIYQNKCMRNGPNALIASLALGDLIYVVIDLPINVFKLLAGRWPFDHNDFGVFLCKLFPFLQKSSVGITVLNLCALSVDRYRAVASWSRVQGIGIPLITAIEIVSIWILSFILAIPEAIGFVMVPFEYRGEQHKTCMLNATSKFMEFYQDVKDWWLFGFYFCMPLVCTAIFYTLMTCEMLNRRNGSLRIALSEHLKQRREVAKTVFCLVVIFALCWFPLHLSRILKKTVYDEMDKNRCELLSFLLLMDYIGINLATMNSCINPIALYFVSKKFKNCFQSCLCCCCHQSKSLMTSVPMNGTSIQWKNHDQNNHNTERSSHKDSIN
- experiment description: Endothelin Receptor Binding Assay-A (ETA), intact cell binding of [125I]-ET-1
- condition context: Table IIa; rabbit renal artery vascular smooth muscle cells; read-out: Binding Assay IC50 at Receptor Subtypes ETA
Numbered stars: 1 amine (or outer) side, 2 acyl side, 3 side chain; on linkers, the order of the positions; unused ones are H or OH. Square brackets hold non-standard residues; d marks the D form. Peptide text beside a SMILES is read from it. * marks the point of attachment. X3 = Cc1c(C)c(C)c(C[C@@H](N[*:1])C(=O)[*:2])c(C)c1C; X2 = O=C([C@@H](Cc1c2ccccc2cc2ccccc12)N[*:1])[*:2]; dDip = N[C@@H](C(=O)O)C(c1ccccc1)c1ccccc1; Fmoc = O=C(OCC1c2ccccc2-c2ccccc21)*; Cyclohexylacetyl = O=C(CC1CCCCC1)*; Orn = NCCC[C@H](N)C(=O)O
Keep it numeric: pIC50 is minus log10 of the concentration in mol/L.

The following compounds have reported results that may help.
CC[C@H](C)[C@H](NC(=O)[C@H](CC(=O)O)NC(=O)[C@H](CCCN)NC(=O)[C@H](NC(C)=O)C(c1ccccc1)c1ccccc1)C(=O)N[C@H](C(=O)N[C@@H](Cc1c[nH]c2ccccc12)C(=O)O)[C@@H](C)CC [Example 21, Ac--D--Dip--Orn--Asp--Ile--Ile--Trp] (Ac-[dDip][Orn]DIIW-OH) | 7.82
CC[C@H](C)[C@H](NC(=O)[C@H](CC(=O)O)NC(=O)[C@H](CC(C)C)NC(=O)[C@H](N)Cc1c2ccccc2cc2ccccc12)C(=O)N[C@H](C(=O)N[C@@H](Cc1c[nH]c2ccccc12)C(=O)O)[C@@H](C)CC [Example 54, D--Ana--Leu--Asp--Ile--Ile--Trp] (H-[X2]LDIIW-OH) | 5.23
CC[C@H](C)[C@H](NC(=O)[C@H](CC(=O)O)NC(=O)[C@H](CC(C)C)NC(=O)[C@H](N)C(c1ccccc1)c1ccccc1)C(=O)N[C@H](C(=O)N[C@@H](Cc1c[nH]c2ccccc12)C(=O)O)[C@@H](C)CC [Example 49, D--Dip--Leu--Asp--Ile--Ile--Trp] (H-[dDip]LDIIW-OH) | 5.68

(Q) Missing value: pIC50, ETA (Oryctolagus cuniculus), entry CC[C@H](C)[C@H](NC(=O)[C@H](CC(=O)O)NC(=O)[C@H](CC(C)C)NC(=O)[C@H](NC(=O)CC1CCCCC1)C(c1ccccc1)c1ccccc1)C(=O)N[C@H](C(=O)N[C@@H](Cc1c[nH]c2ccccc12)C(=O)O)[C@@H](C)CC [Example 34, Cxl--D--Dip--Leu--Asp--Ile--Ile--Trp] (Cyclohexylacetyl-[dDip]LDIIW-OH) . Fill in?
(A) 5.47

(Q) Missing value: pIC50, ETA (Oryctolagus cuniculus), entry CC[C@H](C)[C@H](NC(=O)[C@H](CC(=O)O)NC(=O)[C@H](CC(C)C)NC(=O)[C@H](NC(=O)OCC1c2ccccc2-c2ccccc21)C(c1ccccc1)c1ccccc1)C(=O)N[C@H](C(=O)N[C@@H](Cc1c[nH]c2ccccc12)C(=O)O)[C@@H](C)CC [Example 30, Fmoc--D--Dip--Leu--Asp--Ile--Ile--Trp] (Fmoc-[dDip]LDIIW-OH) . Fill in?
(A) 5.22

(Q) Missing value: pIC50, ETA (Oryctolagus cuniculus), entry CC[C@H](C)[C@H](NC(=O)[C@H](CC(=O)O)NC(=O)[C@H](CC(C)C)NC(=O)[C@H](N)Cc1c(C)c(C)c(C)c(C)c1C)C(=O)N[C@H](C(=O)N[C@@H](Cc1c[nH]c2ccccc12)C(=O)O)[C@@H](C)CC [Example 52, D--Pmp--Leu--Asp--Ile--Ile--Trp] (H-[X3]LDIIW-OH) . Fill in?
(A) 5.22

====

Measured IC50 of individual entries
- study system: ETB (Rattus norvegicus)
- Sequence (P21451 27-442): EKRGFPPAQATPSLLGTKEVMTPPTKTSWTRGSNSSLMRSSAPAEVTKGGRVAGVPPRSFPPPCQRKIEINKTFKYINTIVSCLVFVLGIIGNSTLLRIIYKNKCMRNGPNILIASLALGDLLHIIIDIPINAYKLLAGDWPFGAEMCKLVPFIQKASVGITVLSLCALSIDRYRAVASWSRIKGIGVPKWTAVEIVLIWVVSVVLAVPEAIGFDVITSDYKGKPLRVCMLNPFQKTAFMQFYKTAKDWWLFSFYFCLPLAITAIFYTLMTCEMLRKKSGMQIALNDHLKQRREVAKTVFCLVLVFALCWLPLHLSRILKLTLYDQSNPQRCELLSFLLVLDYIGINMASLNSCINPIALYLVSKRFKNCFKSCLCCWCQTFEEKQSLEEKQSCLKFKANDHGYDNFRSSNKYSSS
Square brackets hold non-standard residues; d marks the D form. Peptide text beside a SMILES is read from it.
Entry rule: numbers only, all in nM.

(Q) Need IC50 of CC[C@H](C)[C@H](NC(=O)[C@H](C)NC(=O)[C@H](CC(=O)O)NC(=O)[C@H](CC(C)C)NC(=O)[C@@H](Cc1ccccc1)NC(C)=O)C(=O)N[C@@H](Cc1c[nH]c2ccccc12)C(=O)O [Example 73, Ac--D--Phe--Leu--Asp--Ala--Ile--Trp] (Ac-[dF]LDAIW-OH) , thanks.
(A) 330

====

Measured IC50 of individual entries
- study system: ETA (Oryctolagus cuniculus)
- Construct: The cells used were rabbit renal artery vascular smooth muscle cells; endogenous in cells
- experiment description: Endothelin Receptor Binding Assay-A (ETA), intact cell binding of [125I]-ET-1
- condition context: Table IIa; rabbit renal artery vascular smooth muscle cells; read-out: Binding Assay IC50 at Receptor Subtypes ETA
Square brackets hold non-standard residues; d marks the D form. Peptide text beside a SMILES is read from it. dDip = N[C@@H](C(=O)O)C(c1ccccc1)c1ccccc1
Entry rule: numbers only, all in nM.

CC[C@H](C)[C@H](NC(=O)[C@H](CCC(=O)O)NC(=O)[C@H](CC(=O)O)NC(=O)[C@H](CC(C)C)NC(=O)[C@H](NC(C)=O)C(c1ccccc1)c1ccccc1)C(=O)N[C@@H](Cc1c[nH]c2ccccc12)C(=O)O [Example 19, Ac--D--Dip--Leu--Asp--Glu--Ile--Trp] (Ac-[dDip]LDEIW-OH) | 1000

Next item in the queue.
(Q) Need IC50 of CC[C@H](C)[C@H](NC(=O)[C@H](CC(=O)O)NC(=O)[C@H](CC(C)C)NC(=O)[C@H](NC(C)=O)C(c1ccccc1)c1ccccc1)C(=O)N[C@H](C(=O)N[C@@H](Cc1ccc(O)cc1)C(=O)O)[C@@H](C)CC [Example 88, Ac--D--Dip--Leu--Asp--Ile--Ile--Tyr] (Ac-[dDip]LDIIY-OH) , thanks.
(A) 3700

====

- study system: ETB (Rattus norvegicus, UniProt P21451)
- Construct: thaw one aliquot of frozen rat cerebellar membranes; from tissue; host or cells: rat cerebellar membranes
- Sequence (P21451 27-442): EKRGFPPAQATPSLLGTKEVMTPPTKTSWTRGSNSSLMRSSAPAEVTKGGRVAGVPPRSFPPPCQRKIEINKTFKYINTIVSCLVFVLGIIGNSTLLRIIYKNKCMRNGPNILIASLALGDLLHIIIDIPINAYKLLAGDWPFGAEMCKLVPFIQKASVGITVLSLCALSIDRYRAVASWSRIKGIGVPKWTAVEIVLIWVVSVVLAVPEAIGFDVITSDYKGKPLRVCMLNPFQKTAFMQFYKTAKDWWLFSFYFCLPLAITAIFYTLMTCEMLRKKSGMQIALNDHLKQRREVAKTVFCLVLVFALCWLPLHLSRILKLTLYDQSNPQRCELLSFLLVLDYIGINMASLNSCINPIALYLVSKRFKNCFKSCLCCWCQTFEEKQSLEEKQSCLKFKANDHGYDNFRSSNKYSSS
- experiment description: Endothelin Receptor Binding Assay-B (ETB), [125I]-ET-1 binding in rat cerebellar membranes
- condition context: Table IIa; rat cerebellar membranes; read-out: Binding Assay IC50 at Receptor Subtypes ETB
Square brackets hold non-standard residues; d marks the D form. Peptide text beside a SMILES is read from it. dDip = N[C@@H](C(=O)O)C(c1ccccc1)c1ccccc1; Orn = NCCC[C@H](N)C(=O)O
Measured pIC50 of individual entries
Keep it numeric: pIC50 is minus log10 of the concentration in mol/L.

The following molecules have reported results that may help.
CC[C@H](C)[C@H](NC(=O)[C@H](CC(=O)O)NC(=O)[C@H](CC(C)C)NC(=O)[C@H](NC(C)=O)C(c1ccccc1)c1ccccc1)C(=O)N[C@H](C(=O)N[C@@H](Cc1ccc(O)cc1)C(=O)O)[C@@H](C)CC [Example 88, Ac--D--Dip--Leu--Asp--Ile--Ile--Tyr] (Ac-[dDip]LDIIY-OH) | 5.20
CC[C@H](C)[C@H](NC(=O)[C@H](CC(=O)O)NC(=O)[C@H](CC(C)C)NC(=O)[C@H](NC(C)=O)C(c1ccccc1)c1ccccc1)C(=O)N[C@@H](CCCCN)C(=O)N[C@@H](Cc1c[nH]c2ccccc12)C(=O)O [Example 17, Ac--D--Dip--Leu--Asp--Ile--Lys--Trp] (Ac-[dDip]LDIKW-OH) | 5.38

Next item in the queue.
(Q) Need pIC50 of CC[C@H](C)[C@H](NC(=O)[C@H](CC(=O)O)NC(=O)[C@H](CCCN)NC(=O)[C@H](NC(C)=O)C(c1ccccc1)c1ccccc1)C(=O)N[C@H](C(=O)N[C@@H](Cc1c[nH]c2ccccc12)C(=O)O)[C@@H](C)CC [Example 21, Ac--D--Dip--Orn--Asp--Ile--Ile--Trp] (Ac-[dDip][Orn]DIIW-OH) , thanks.
(A) 6.66
